Sourced from patent US7820651B2

Test Summary: Exploratory experiments for dissolving in water (solubility)
Format: physicochemical
Experimental Parameters: in 100 ml of water at room temperature
Attribute Measured: solubility

Data request: Fill blank: measured solubility of the compound O=S1(=O)CCN2COCN1C2 is ____.
Data returned: ≤ 13 mg/mL
